- System: NS5A chimeric genotype 2a JFH-1 replicon with genotype 2a J6 strain NS5A gene (M31)
- Method summary: HCV genotype 2a J6 NS5A chimeric replicon assay, transient (t)
- Type: cell-based
- Run parameters: Hepatitis C virus, 72 h, read-out: 2a J6 (t) (nM)
Quantity kind: EC50 (nM)
Write the answer as a number in nM, unit excluded.

Check the records and state EC50 for COC(=O)N[C@H](C(=O)N1[C@@H](C)CC[C@H]1c1ncc(-c2ccc3c(c2)COc2cc4c(ccc5nc([C@@H]6CC[C@H](C)N6C(=O)[C@H](NC(=O)OC)C6C[C@@H](C)O[C@H](C)C6)[nH]c54)cc2-3)[nH]1)C(C)C (some centres unmarked)
5.14

Check the records and state EC50 for COC(=O)N[C@H](C(=O)N1[C@@H](C)CC[C@H]1c1nc2ccc3cc4c(cc3c2[nH]1)OCc1cc(-c2cnc([C@@H]3CC[C@H](C)N3C(=O)[C@H](NC(=O)OC)[C@H]3C[C@@H](C)O[C@@H](C)C3)[nH]2)ccc1-4)C(C)C
4.44

Check the records and state EC50 for COC(=O)N[C@H](C(=O)N1[C@H](c2ncc(-c3ccc4c(c3)COc3cc5c(ccc6nc([C@@H]7CC[C@H](C)N7C(=O)[C@@H](NC(=O)OC)C7C[C@@H](C)O[C@H](C)C7)[nH]c65)cc3-4)[nH]2)C[C@@H]2CCC[C@@H]21)C(C)C (some centres unmarked)
0.013

Check the records and state EC50 for CC[C@H]1CC[C@@H](c2nc3ccc4cc5c(cc4c3[nH]2)OCc2cc(-c3cnc([C@@H]4CC[C@H](C)N4C(=O)[C@@H](NC(=O)OC)C(C)C)[nH]3)ccc2-5)N1C(=O)[C@@H](NC(=O)OC)[C@@H]1CCCOC1
0.172

Check the records and state EC50 for CC[C@H](C)[C@H](NC(=O)OC)C(=O)N1[C@@H](C)CC[C@H]1c1ncc(-c2ccc3c(c2)COc2cc4c(ccc5nc([C@@H]6CC[C@H](C)N6C(=O)[C@@H](NC(=O)OC)C6CCOCC6)[nH]c54)cc2-3)[nH]1 [Comp 4, reference compound]
0.026

Check the records and state EC50 for CC[C@H]1CC[C@@H](c2nc3ccc4cc5c(cc4c3[nH]2)OCc2cc(-c3cnc([C@@H]4CC[C@H](C)N4C(=O)[C@@H](NC(=O)OC)C(C)C)[nH]3)ccc2-5)N1C(=O)[C@@H](NC(=O)OC)C1C[C@@H](C)O[C@H](C)C1 (some centres unmarked)
0.003

Check the records and state EC50 for COC(=O)N[C@H](C(=O)N1[C@@H](C)CC[C@H]1c1ncc(-c2ccc3c(c2)COc2cc4c(ccc5nc([C@@H]6CC[C@H](C)N6C(=O)[C@@H](NC(=O)OC)[C@H]6CCCOC6)[nH]c54)cc2-3)[nH]1)C(C)C
0.041

Check the records and state EC50 for COC(=O)N[C@H](C(=O)N1[C@@H](C)CC[C@H]1c1ncc(-c2ccc3c(c2)COc2cc4c(ccc5nc([C@@H]6CCCN6C(=O)[C@@H](NC(=O)OC)C6C[C@@H](C)O[C@H](C)C6)[nH]c54)cc2-3)[nH]1)C(C)C (some centres unmarked)
0.021

###

- Tested on: NS5A chimeric genotype 2a JFH-1 replicon with genotype 2a J6 strain NS5A gene (M31)
- Method summary: HCV genotype 2a J6 NS5A chimeric replicon assay, transient (t)
- Type: cell-based
- Run parameters: Hepatitis C virus, 72 h, read-out: 2a J6 (t) (nM)
Flag rule - EC50 less than 0.03 nM flags MET; the remaining entries get NOT MET.

Please determine if CC[C@H](C)[C@H](NC(=O)OC)C(=O)N1[C@@H](C)CC[C@H]1c1nc2ccc3cc4c(cc3c2[nH]1)OCc1cc(-c2cnc([C@@H]3CC[C@H](C)N3C(=O)[C@@H](NC(=O)OC)C3CCOCC3)[nH]2)ccc1-4 [Comp 12, reference compound] is below 0.03 nM in terms of EC50.
NOT MET

Please determine if COC[C@H]1C[C@@H](c2ncc(-c3ccc4c(c3)COc3cc5c(ccc6nc([C@@H]7CC[C@H](C)N7C(=O)[C@@H](NC(=O)OC)C(C)C)[nH]c65)cc3-4)[nH]2)N(C(=O)[C@@H](NC(=O)OC)C2CCOCC2)C1 [Comp 2, reference compound] is below 0.03 nM in terms of EC50.
NOT MET

Please determine if COC(=O)N[C@H](C(=O)N1[C@@H](C)CC[C@H]1c1ncc(-c2ccc3c(c2)COc2cc4c(ccc5nc([C@@H]6C[C@@H]7CCC[C@@H]7N6C(=O)[C@@H](NC(=O)OC)C6CCOCC6)[nH]c54)cc2-3)[nH]1)C(C)C [Comp 10, reference compound] is below 0.03 nM in terms of EC50.
MET

Please determine if COC(=O)N[C@H](C(=O)N1[C@@H](C)CC[C@H]1c1ncc(-c2ccc3c(c2)COc2cc4c(ccc5nc([C@@H]6CC[C@H](C)N6C(=O)[C@@H](NC(=O)OC)[C@H]6C[C@@H](C)O[C@@H](C)C6)[nH]c54)cc2-3)[nH]1)C(C)C is below 0.03 nM in terms of EC50.
MET

Please determine if COC(=O)N[C@H](C(=O)N1[C@H](c2nc3ccc4cc5c(cc4c3[nH]2)OCc2cc(-c3cnc([C@@H]4CC[C@H](C)N4C(=O)[C@@H](NC(=O)OC)C4C[C@@H](C)O[C@H](C)C4)[nH]3)ccc2-5)C[C@@H]2CCC[C@@H]21)C(C)C (some centres unmarked) is below 0.03 nM in terms of EC50.
MET

###

- Tested on: L31V/Y93H in genotype 1b NS5A replicon
- Method summary: Resistance mutant replicon assay, genotype 1b NS5A L31V/Y93H
- Format: cell-based, HCV
- Run parameters: Hepatitis C virus, read-out: 1b L31V/Y93H (nM)
Quantity kind: log10(EC50) (log10 of the value in nM)
The figures below represent log10 of EC50, where EC50 is stated in nM.

Check the records and state log10(EC50) for COC(=O)N[C@H](C(=O)N1[C@@H](C)CC[C@H]1c1ncc(-c2ccc3c(c2)COc2cc4c(ccc5nc([C@@H]6CC[C@H](C)N6C(=O)[C@@H](NC(=O)OC)[C@@H]6CCCOC6)[nH]c54)cc2-3)[nH]1)C(C)C [Example AJ]
1.64

Check the records and state log10(EC50) for COC(=O)N[C@H](C(=O)N1[C@@H](C)CC[C@H]1c1ncc(-c2ccc3c(c2)COc2cc4c(ccc5nc([C@@H]6C[C@@H]7CCC[C@@H]7N6C(=O)[C@@H](NC(=O)OC)C6CCOCC6)[nH]c54)cc2-3)[nH]1)C(C)C [Comp 10, reference compound]
-1.62

Check the records and state log10(EC50) for COC(=O)N[C@H](C(=O)N1[C@@H](C)CC[C@H]1c1ncc(-c2ccc3c(c2)COc2cc4c(ccc5nc([C@@H]6CC[C@H](C)N6C(=O)[C@@H](NC(=O)OC)[C@H]6CCCOC6)[nH]c54)cc2-3)[nH]1)C(C)C [Example AI]
1.33

Check the records and state log10(EC50) for COC(=O)N[C@H](C(=O)N1[C@@H](C)CC[C@H]1c1nc2ccc3cc4c(cc3c2[nH]1)OCc1cc(-c2cnc([C@@H]3CC[C@H](C)N3C(=O)[C@@H](NC(=O)OC)[C@H]3C[C@@H](C)O[C@@H](C)C3)[nH]2)ccc1-4)C(C)C [Example AO]
1.24

Check the records and state log10(EC50) for COC(=O)N[C@H](C(=O)N1[C@@H](C)CC[C@H]1c1ncc(-c2ccc3c(c2)COc2cc4c(ccc5nc([C@@H]6CC[C@H](C)N6C(=O)[C@@H](NC(=O)OC)C6CC(C)O[C@H](C)C6)[nH]c54)cc2-3)[nH]1)C(C)C (stereo in doubt) [Example AQ]
-0.04

Check the records and state log10(EC50) for COC(=O)N[C@H](C(=O)N1[C@@H](C)CC[C@H]1c1nc2ccc3cc4c(cc3c2[nH]1)OCc1cc(-c2cnc([C@@H]3CC[C@H](C)N3C(=O)[C@@H](NC(=O)OC)C3C[C@@H](C)O[C@H](C)C3)[nH]2)ccc1-4)C(C)C (stereo partly shown) [Example AS]
0.31

Check the records and state log10(EC50) for CC[C@H]1C[C@@H](c2nc3ccc4cc5c(cc4c3[nH]2)OCc2cc(-c3cnc([C@@H]4CC[C@H](C)N4C(=O)[C@@H](NC(=O)OC)C(C)C)[nH]3)ccc2-5)N(C(=O)[C@@H](NC(=O)OC)C2C[C@@H](C)O[C@H](C)C2)C1 (stereo partly shown) [Example AF]
-0.74
